target: PDE2A (NM002599) (Homo sapiens); construct: made in house; host or cells: baculovirus / SF21 insect cells; assay: Inhibition of recombinant PDE2A (expressed in baculovirus/SF21-cells); assay type: biochemical; conditions: recombinant PDE2A, 0.5 μM [3H]-cAMP, 1000 nM cGMP, 37° C., 30 minutes, SPA; read-out: PDE2A IC50
pIC50: −log10 of the molar value.
// pIC50 lookup, one value per entry
metric_name: pIC50

{"chemical_string": "COc1ccc2nnc3c(C)nc(-c4cc(C#N)ccc4Cl)n3c2n1", "metric_name": "pIC50", "qual": "=", "assay_result": 7.53}
{"chemical_string": "COc1ccc2nnc3c(C)nc(-c4ccccn4)n3c2n1", "metric_name": "pIC50", "qual": "=", "assay_result": 5.66}
{"chemical_string": "COc1ccc2nnc3c(C)nc(-c4cc(F)ccc4Cl)n3c2n1", "metric_name": "pIC50", "qual": "=", "assay_result": 8.27}
{"chemical_string": "COc1ccc2nnc3c(-c4ccccc4)ncn3c2n1", "metric_name": "pIC50", "qual": "<", "assay_result": 6.30}

###

target: PDE2A (NM002599) (Homo sapiens, UniProt O00408); construct: made in house; host or cells: baculovirus / SF21 insect cells; assay: Inhibition of recombinant PDE2A (expressed in baculovirus/SF21-cells); format: biochemical; conditions: recombinant PDE2A, 0.5 μM [3H]-cAMP, 1000 nM cGMP, 37° C., 30 minutes, SPA; read-out: PDE2A IC50
Sequence (O00408 whole entry): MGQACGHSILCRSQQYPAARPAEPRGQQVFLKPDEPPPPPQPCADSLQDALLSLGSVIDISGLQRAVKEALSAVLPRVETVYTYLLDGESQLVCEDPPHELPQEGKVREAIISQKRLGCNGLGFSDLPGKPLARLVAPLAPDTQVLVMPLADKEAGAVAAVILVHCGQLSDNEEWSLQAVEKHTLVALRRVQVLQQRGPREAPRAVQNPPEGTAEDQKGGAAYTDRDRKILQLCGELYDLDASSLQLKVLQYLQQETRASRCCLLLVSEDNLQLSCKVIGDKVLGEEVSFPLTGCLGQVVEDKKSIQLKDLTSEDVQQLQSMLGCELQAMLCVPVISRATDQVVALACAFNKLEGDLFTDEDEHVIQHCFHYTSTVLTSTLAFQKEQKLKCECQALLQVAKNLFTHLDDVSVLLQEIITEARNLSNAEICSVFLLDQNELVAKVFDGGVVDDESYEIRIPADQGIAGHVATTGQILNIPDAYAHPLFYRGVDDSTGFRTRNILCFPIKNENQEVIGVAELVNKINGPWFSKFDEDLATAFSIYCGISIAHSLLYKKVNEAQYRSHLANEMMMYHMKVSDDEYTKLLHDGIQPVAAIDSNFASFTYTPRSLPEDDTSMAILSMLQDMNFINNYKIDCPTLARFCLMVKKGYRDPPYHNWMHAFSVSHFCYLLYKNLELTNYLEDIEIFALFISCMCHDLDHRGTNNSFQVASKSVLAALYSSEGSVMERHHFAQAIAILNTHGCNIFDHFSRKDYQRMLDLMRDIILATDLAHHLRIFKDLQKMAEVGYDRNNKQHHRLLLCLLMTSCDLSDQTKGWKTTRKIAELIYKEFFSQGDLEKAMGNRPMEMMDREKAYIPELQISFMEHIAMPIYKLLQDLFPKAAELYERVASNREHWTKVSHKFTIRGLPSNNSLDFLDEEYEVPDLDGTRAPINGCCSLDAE
Listed here are molecules together with their documented IC50.

{"chemical_string": "CCc1cccc(-c2nc(C)c3nnc4ccc(OC)nc4n23)c1", "target_or_test_system": "PDE2A (NM002599) (Homo sapiens, UniProt O00408)", "IC50 [nM]": 80.5}
{"chemical_string": "COc1ccc2nnc3c(C)nc(-c4ccccc4Oc4ccccc4)n3c2n1", "target_or_test_system": "PDE2A (NM002599) (Homo sapiens, UniProt O00408)", "IC50 [nM]": 61.7}
{"chemical_string": "COc1ccc2nnc3c(C)nc(-c4cc(Cl)ccc4C(F)(F)F)n3c2n1", "target_or_test_system": "PDE2A (NM002599) (Homo sapiens, UniProt O00408)", "IC50 [nM]": 79.6}
{"chemical_string": "COc1ccc2nnc3c(C)nc(-c4ccnc(C)c4)n3c2n1", "target_or_test_system": "PDE2A (NM002599) (Homo sapiens, UniProt O00408)", "IC50 [nM]": 421}
{"chemical_string": "COc1ccc2nnc3c(C)nc(-c4cccc(Cl)c4C)n3c2n1", "target_or_test_system": "PDE2A (NM002599) (Homo sapiens, UniProt O00408)", "IC50 [nM]": 89.5}
{"chemical_string": "COc1ccc2nnc3c(C)nc(-c4cccc(OC(F)(F)F)c4)n3c2n1", "target_or_test_system": "PDE2A (NM002599) (Homo sapiens, UniProt O00408)", "IC50 [nM]": 348}
{"chemical_string": "COc1ccc2nnc3c(C)nc(-c4ccc(F)cc4C)n3c2n1", "target_or_test_system": "PDE2A (NM002599) (Homo sapiens, UniProt O00408)", "IC50 [nM]": 21.2}
{"chemical_string": "COc1ccc2nnc3c(C)nc(-c4c(C)nn(C)c4C)n3c2n1", "target_or_test_system": "PDE2A (NM002599) (Homo sapiens, UniProt O00408)", "IC50 [nM]": 22.9}
{"chemical_string": "COc1ccc2nnc3c(C)nc(-c4cccc(OC(C)C)c4)n3c2n1", "target_or_test_system": "PDE2A (NM002599) (Homo sapiens, UniProt O00408)", "IC50 [nM]": 818}
{"chemical_string": "COc1ccc2nnc3c(C)nc(-c4cccc(OC)c4OC)n3c2n1", "target_or_test_system": "PDE2A (NM002599) (Homo sapiens, UniProt O00408)", "IC50 [nM]": 274}
{"chemical_string": "CCCc1nc(C)c2nnc3ccc(OC)nc3n12", "target_or_test_system": "PDE2A (NM002599) (Homo sapiens, UniProt O00408)", "IC50 [nM]": 88.8}
{"chemical_string": "COc1ccc2nnc3c(C)nc(-c4ccncc4Cl)n3c2n1", "target_or_test_system": "PDE2A (NM002599) (Homo sapiens, UniProt O00408)", "IC50 [nM]": 31.7}
{"chemical_string": "COc1ccc2nnc3c(C)nc(-c4ccncc4C)n3c2n1", "target_or_test_system": "PDE2A (NM002599) (Homo sapiens, UniProt O00408)", "IC50 [nM]": 56.2}
{"chemical_string": "COc1ccc2nnc3c(C)nc(-c4ccc5nccn5c4)n3c2n1", "target_or_test_system": "PDE2A (NM002599) (Homo sapiens, UniProt O00408)", "IC50 [nM]": 550}
{"chemical_string": "COc1ccnc2c1nnc1c(C)nc(-c3ccncc3C)n12", "target_or_test_system": "PDE2A (NM002599) (Homo sapiens, UniProt O00408)", "IC50 [nM]": 2060}
